Data origin, for the record: paper PMC9386376

Consider the following molecules and their measured inhibition at 1 µM readings.
Test target: GST-tagged MDM2 (Homo sapiens, UniProt Q00987)
Construct: purchased Cisbio Co. Ltd
Sequence (Q00987 whole entry): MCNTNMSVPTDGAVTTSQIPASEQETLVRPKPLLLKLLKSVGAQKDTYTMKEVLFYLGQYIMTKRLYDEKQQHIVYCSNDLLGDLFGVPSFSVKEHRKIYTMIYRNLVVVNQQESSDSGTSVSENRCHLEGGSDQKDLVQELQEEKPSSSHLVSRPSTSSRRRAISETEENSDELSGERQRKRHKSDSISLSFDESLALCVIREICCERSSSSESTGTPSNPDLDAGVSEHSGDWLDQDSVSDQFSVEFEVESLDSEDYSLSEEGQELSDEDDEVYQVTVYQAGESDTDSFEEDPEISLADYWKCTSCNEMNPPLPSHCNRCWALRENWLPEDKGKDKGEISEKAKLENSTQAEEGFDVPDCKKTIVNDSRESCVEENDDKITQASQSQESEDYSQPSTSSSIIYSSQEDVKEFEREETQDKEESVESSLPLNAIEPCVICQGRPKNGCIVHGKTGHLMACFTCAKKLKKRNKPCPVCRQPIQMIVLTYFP
Assay method text: HTRF enzyme inhibition assay, MDM2
Type: biochemical
Measurement conditions: compound at 1 μM
Express it in %; write the number only.

[[record]]
entry_smiles = "O=C(CCCCCCC(=O)Nc1ccc([C@@H]2[C@H]3CSCN3[C@]3(C(=O)Nc4cc(Br)ccc43)[C@H]2C(=O)c2ccccc2)cc1)NO"
test_target = "GST-tagged MDM2 (Homo sapiens, UniProt Q00987)"
units_label = "%"
recorded_result = 59


Ask | Bench note: what inhibition at 1 µM did O=C(CCCCCCC(=O)Nc1ccc([C@@H]2[C@H]3CSCN3[C@]3(C(=O)Nc4ccc(F)cc43)[C@H]2C(=O)c2ccccc2)cc1)NO show?
Reply | 51

Ask | What does the record list as inhibition at 1 µM for O=C(CCCCCCCCC(=O)Nc1ccc([C@@H]2[C@H]3CSCN3[C@]3(C(=O)Nc4cc(Cl)ccc43)[C@H]2C(=O)c2ccccc2)cc1)NO ?
Reply | 59

Ask | Name the recorded inhibition at 1 µM for O=C(CCCCCCC(=O)Nc1ccc([C@@H]2[C@H]3CSCN3[C@]3(C(=O)Nc4c(Br)cccc43)[C@H]2C(=O)c2ccccc2)cc1)NO .
Reply | 30
